Data origin: ChEMBL document CHEMBL1157793

System: HeLa
assay.name: Antiproliferative activity against human HeLa cells after 72 hrs by MTT assay
Format: functional, cell-based
measurement.type: IC50

> print(dat)
                               entry.smiles  system.tested  measurement.type  reported
1  CCOc1cccc(-c2ncnn2-c2cc(OC)c(OC)c(OC)c2)c1           HeLa              IC50   > 10 µM
2  CCOc1ccccc1-c1ncnn1-c1cc(OC)c(OC)c(OC)c1           HeLa              IC50   > 10 µM
3  CCOc1ccc(-c2ncnn2-c2cc(OC)c(OC)c(OC)c2)cc1Cl           HeLa              IC50  0.006 µM
4       COc1cc(-c2ncnn2-c2ccccc2)cc(OC)c1OC           HeLa              IC50   > 10 µM
5  CCOc1ccc(-c2ncnn2-c2cc(OC)c(OC)c(OC)c2)cc1           HeLa              IC50  0.015 µM

Look at this compound and give its reported IC50. COc1cc(-c2ncnn2-c2ccc(Cl)c(Cl)c2)cc(OC)c1OC
> 10 µM

###

Organism: Bos taurus
assay.name: Displacement of [3H]colchicine from bovine tubulin at 1 uM
measurement.type: Activity (%)
Provide the reading as a plain figure in %.

> print(dat)
                               entry.smiles  measurement.type  reported
1    COc1cc(-n2ncnc2-c2ccc(C)cc2)cc(OC)c1OC          Activity        33
2  CCOc1ccc(-c2ncnn2-c2cc(OC)c(OC)c(OC)c2)cc1          Activity        86
3    COc1ccc(/C=C\c2cc(OC)c(OC)c(OC)c2)cc1O          Activity        87
4  CCOc1ccc(-c2ncnn2-c2cc(OC)c(OC)c(OC)c2)cc1Cl          Activity        75
5  COc1cc(-n2ncnc2-c2ccc(OC(C)C)cc2)cc(OC)c1OC          Activity        37

Param item = COc1cc(-n2ncnc2-c2ccc(SC)cc2)cc(OC)c1OC ; retrieve measured Activity.
38

Param item: COc1ccc(-c2ncnn2-c2cc(OC)c(OC)c(OC)c2)cc1
55

###

Tested on: HeLa
assay.name: Antiproliferative activity against human HeLa cells after 72 hrs by MTT assay
Type: functional, cell-based
pIC50: −log10 of the molar value.
# reported pIC50; entries follow

# count of solved cases: 2
> print(dat)
                               entry.smiles  reported
1  COc1cc(-n2ncnc2-c2ccc(Cl)c(Cl)c2)cc(OC)c1OC    < 5.00
2    COc1cc(-n2ncnc2-c2ccc(C)cc2)cc(OC)c1OC      6.60

# get_value(readout='pIC50', item= COc1cc(-n2ncnc2-c2cccc(Cl)c2)cc(OC)c1OC )
< 5.00

Same question, COc1cc(-n2ncnc2-c2ccc(SC)cc2)cc(OC)c1OC this time
6.82

Next molecule up: COc1cc(-c2ncnn2-c2cccc(F)c2)cc(OC)c1OC
< 5.00

One more molecule: COc1cc(-c2ncnn2-c2cccc(N)c2)cc(OC)c1OC
< 5.00

# iterate: COc1cc(-c2ncnn2-c2cccc([N+](=O)[O-])c2)cc(OC)c1OC
< 5.00

And the next one, COc1cc(-n2ncnc2-c2ccc(Cl)cc2)cc(OC)c1OC ?
< 5.00

Let us now turn to COc1cc(-c2ncnn2-c2ccc(N)cc2)cc(OC)c1OC
< 5.00

Then COc1cc(-n2ncnc2-c2cccc(F)c2)cc(OC)c1OC ?
< 5.00

Please give the result for COc1cc(-c2ncnn2-c2ccc(Cl)cc2Cl)cc(OC)c1OC too.
< 5.00

Record: COc1ccccc1-c1ncnn1-c1cc(OC)c(OC)c(OC)c1
< 5.00

Also need COc1cc(-c2ncnn2-c2ccc(F)cc2)cc(OC)c1OC , thanks.
< 5.00

// next record COc1cc(-c2ncnn2-c2ccc([N+](=O)[O-])cc2)cc(OC)c1OC
< 5.00

Item: COc1cc(-n2ncnc2-c2ccc(F)cc2)cc(OC)c1OC
< 5.00

Also, COc1cc(-n2ncnc2-c2cccc([N+](=O)[O-])c2)cc(OC)c1OC please.
< 5.00

Moving on to COc1cc(-n2ncnc2-c2ccc(OC(C)C)cc2)cc(OC)c1OC
6.22

Next record, please: COc1cc(-n2ncnc2-c2ccc(OC(F)(F)F)cc2)cc(OC)c1OC
< 5.00

Record: COc1cc(-n2ncnc2-c2ccccc2)cc(OC)c1OC
< 5.00

// query: COc1cccc(-c2ncnn2-c2cc(OC)c(OC)c(OC)c2)c1
< 5.00

Consider next the molecule COc1ccc(-n2ncnc2-c2cc(OC)c(OC)c(OC)c2)cc1 in the same way.
< 5.00

And what about the molecule COc1ccc(-c2ncnn2-c2cc(OC)c(OC)c(OC)c2)cc1 ?
6.55

Repeat for the following molecule: COc1cc(-c2ncnn2-c2ccc(Cl)cc2)cc(OC)c1OC
< 5.00
